This collection of values is drawn from patent US12152019B2.

Listed below: pIC50 values for each entry.
Target: IDO1 (Homo sapiens, UniProt P14902)
Sequence (P14902 whole entry): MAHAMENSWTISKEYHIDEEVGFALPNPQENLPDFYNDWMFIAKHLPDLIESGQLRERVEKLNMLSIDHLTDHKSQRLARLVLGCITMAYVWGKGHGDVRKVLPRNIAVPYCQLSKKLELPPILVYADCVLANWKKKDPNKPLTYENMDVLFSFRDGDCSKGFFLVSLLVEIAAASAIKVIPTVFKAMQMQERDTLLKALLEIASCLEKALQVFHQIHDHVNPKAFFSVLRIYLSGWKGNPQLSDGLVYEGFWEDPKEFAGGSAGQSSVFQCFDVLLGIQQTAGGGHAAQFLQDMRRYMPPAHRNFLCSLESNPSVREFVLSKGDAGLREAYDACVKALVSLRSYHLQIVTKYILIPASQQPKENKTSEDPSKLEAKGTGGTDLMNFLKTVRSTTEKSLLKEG
Experiment: IDO1 Human Whole Blood Assay
Type: cell-based
Conditions: LPS and IFNγ 100 ng/mL, overnight (18 h), kynurenine by LC/MS/MS, read-out: Human Whole Blood Potency, IC50
pIC50: −log10 of the molar value.
quantity: pIC50

* Cc1ccc(Cl)c(O[C@H]2CC[C@@H](CCn3nc(C(=O)N4CCN(C(=O)CO)CC4)c4c3CCC4)CC2)c1 | 6.29
* Cc1c(Cl)cccc1O[C@H]1CC[C@@H](CCn2nc(C(=O)N3C[C@@H](C)O[C@@H](C)C3)c3c2CCC3)CC1 | 6.09
* CC(=O)NC1CCN(C(=O)c2nn(CC[C@H]3CC[C@@H](Oc4nccc(C)c4C#N)CC3)c3c2CCC3)CC1 | 6.81
* CC(=O)NC1CCN(C(=O)c2nn(CC[C@H]3CC[C@@H](Oc4ccc(C)nc4C)CC3)c3c2CCC3)CC1 | 6.68
